- EXPERIMENTAL_TARGET: HPK1 (Homo sapiens (Human), UniProt Q92918)
- Sequence (Q92918 whole entry, species assumed): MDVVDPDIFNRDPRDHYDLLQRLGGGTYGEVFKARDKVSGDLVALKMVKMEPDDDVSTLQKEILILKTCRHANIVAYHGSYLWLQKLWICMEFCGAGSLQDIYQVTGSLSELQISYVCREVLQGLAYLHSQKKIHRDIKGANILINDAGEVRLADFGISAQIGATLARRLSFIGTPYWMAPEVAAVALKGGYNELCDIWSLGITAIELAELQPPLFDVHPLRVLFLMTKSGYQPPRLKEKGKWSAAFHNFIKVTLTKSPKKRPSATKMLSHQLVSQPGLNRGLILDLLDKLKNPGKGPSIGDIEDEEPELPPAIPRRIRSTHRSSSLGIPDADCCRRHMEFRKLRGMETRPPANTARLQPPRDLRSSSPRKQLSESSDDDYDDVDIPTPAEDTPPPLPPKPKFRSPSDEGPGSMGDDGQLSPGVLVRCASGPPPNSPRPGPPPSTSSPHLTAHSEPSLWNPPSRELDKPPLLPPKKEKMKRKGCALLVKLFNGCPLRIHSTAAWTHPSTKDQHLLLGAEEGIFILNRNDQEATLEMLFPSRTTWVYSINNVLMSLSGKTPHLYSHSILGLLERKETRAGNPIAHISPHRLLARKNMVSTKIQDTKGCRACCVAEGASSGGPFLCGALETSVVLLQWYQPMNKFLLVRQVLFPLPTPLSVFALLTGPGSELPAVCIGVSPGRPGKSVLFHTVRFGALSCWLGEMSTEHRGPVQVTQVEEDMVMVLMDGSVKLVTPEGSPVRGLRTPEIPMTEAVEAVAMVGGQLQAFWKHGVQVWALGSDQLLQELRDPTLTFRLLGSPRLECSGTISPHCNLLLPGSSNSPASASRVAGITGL
- TEST_DETAILS: HPK1 enzyme activity detection (1 mM ATP system), ADP-Glo with MBP substrate, Pharmacological Experiment 2
- Format: biochemical
pIC50: −log10 of the molar value.
Each entry gets no if its pIC50 stays under 8, and yes if its pIC50 is 8 or above.

Qu. State whether the measured pIC50 reaches 8, counting equality as reaching it, for CN(C)C1CC2(CCOCC2)c2ccc(Nc3ccc(-c4cnc5cc(O)ccn45)c4c3C(=O)NC4)nc21 (stereo not shown) [Compound 171]
Ans. no

Qu. Answer whether pIC50 of CC(C)NC1CC2(CCOCC2)c2ccc(Nc3ccc(-c4cnc5cc(F)ccn45)c4c3C(=O)NC4)nc21 (stereo not shown) [Compound 104] is greater than or equal to 8.
Ans. yes

Qu. Form field: pIC50 at least 8? Entry: CN(C)C1CC2(CCOCC2)c2ccc(Nc3ccc(-c4cnn5ccccc45)c4c3C(=O)NC4)nc21 (stereo not shown) [Compound 37]
Ans. yes

Qu. Reported pIC50 reaches at least 8 for CC(C)CNC1CC2(CCOCC2)c2ccc(Nc3ccc(-c4cnc5cc(F)ccn45)c4c3C(=O)NC4)nc21 (stereo not shown) [Compound 141] ?
Ans. yes

Qu. Record CN(C)C1CC2(CCOCC2)c2ccc(Nc3ccc(-c4cnc5n4CCCC5)c4c3C(=O)NC4)nc21 (stereo not shown) [Compound 166] ; criterion: pIC50 no lower than 8. Met?
Ans. no
